Test system: P. aeruginosa
PROCEDURE_TEXT: AK assay 384-well format, Prestwick library screening
Assay type: cell-based, Pseudomonas aeruginosa
CONDITION_INFO: Pseudomonas aeruginosa, 3 h; planktonic P. aeruginosa; 50 μM final drug concentration; positive cutoff 3-fold increase; read-out: AK-based Prestwick library screening result, P. aeruginosa (fold increase in extracellular AK activity)
Where a name gives a salt, the structure may show the parent alone.
Each entry below lists one item and its recorded fold induction at 50 µM value.

| COMPOUND | ASSAY_RESULT |
| --- | --- |
| O=C(O)/C=C/c1ccc(Cn2ccnc2)cc1 [Ozagrel hydrochloride] | 0.6 |
| COC(=O)C1=C(C)NC(C)=C(C(=O)OC(C)C)C1c1cccc2nonc12 (stereo not drawn) | 1.1 |
| NC(=O)c1ncn([C@@H]2O[C@H](CO)[C@@H](O)[C@H]2O)n1 | 1.1 |
| CCC1(c2ccccc2)NC(=O)N(C)C1=O (stereo not drawn) | 1 |
| CC1(C)S[C@@H]2[C@H](NC(=O)Cc3ccccc3)C(=O)N2[C@H]1C(=O)O [Benzylpenicillin sodium] | 0.7 |

State its fold induction at 50 µM on P. aeruginosa: CCCC1C(=O)N2C(N(C)C)=Nc3ccc(C)cc3N2C1=O (stereo not drawn)
1

---

# Lookup of reported fold induction at 50 µM keyed by entry
Tested on: E. faecium
PROCEDURE_TEXT: AK assay 384-well format, Prestwick library screening
Format: cell-based, Enterococcus faecium
CONDITION_INFO: Enterococcus faecium, 3 h; planktonic E. faecium; 50 μM final drug concentration; cutoff for positive-scoring molecules 3-fold increase; read-out: AK-based Prestwick Library Screening Results, E. faecium (increase in extracellular AK activity)
Structures can show the parent of a compound that is named as a salt.
Lab note: write the figure by itself, no unit.

| COMPOUND | fold induction at 50 µM |
| --- | --- |
| CC(C)(O/N=C(\C(=O)N[C@@H]1C(=O)N2C(C(=O)[O-])=C(C[n+]3ccccc3)CS[C@H]12)c1csc(N)n1)C(=O)O [Ceftazidime pentahydrate] | 0.9 |
| CCCC1O[C@@H]2C[C@H]3[C@@H]4CCC5=CC(=O)C=C[C@]5(C)[C@H]4[C@@H](O)C[C@]3(C)[C@]2(C(=O)CO)O1 (stereo partly drawn) [Budesonide] | 0.9 |
| O=C(CCCN1CCC(n2c(O)nc3ccccc32)CC1)c1ccc(F)cc1 [Benperidol] | 1 |
| CC1=C(C(=O)O)N2C(=O)[C@@H](NC(=O)[C@H](N)c3ccc(O)cc3)[C@H]2SC1 [Cefadroxil] | 0.8 |
| CN1C(=O)OC(C)(C)C1=O [Trimethadione] | 0.9 |
| CCN[C@H]1CN(CCCOC)S(=O)(=O)c2sc(S(N)(=O)=O)cc21 [Brinzolamide] | 1.4 |
| CCN(CC)C(=O)c1ccc(O)c(OC)c1 [Ethamivan] | 1 |
| C=CC(N)CCC(=O)O (stereo not drawn) [Vigabatrin] | 0.9 |
| CC(Cc1cccc(C(F)(F)F)c1)NCCOC(=O)c1ccccc1 (stereo not drawn) [Benfluorex hydrochloride] | 0.9 |
| NC(=O)N/N=C/c1ccc([N+](=O)[O-])o1 [Nitrofural] | 1 |

Please provide the recorded fold induction at 50 µM for C[C@@H]1C[C@H]2[C@@H]3CCC4=CC(=O)C=C[C@]4(C)[C@@]3(Cl)[C@@H](O)C[C@]2(C)[C@@]1(OC(=O)c1ccco1)C(=O)CCl [Mometasone furoate] , tested on E. faecium.
1

CN1CCN(C2=Nc3cc(Cl)ccc3Nc3ccccc32)CC1 [Clozapine] ?
0.9
